Data provenance: patent US6043278A

Listed compounds paired with reported Ki
- SYSTEM NAME: Class B β-lactamase (B. cereus enzyme) (Bacillus cereus)
- Construct: from a range of bacteria, including: Xanthomonas maltophilia, Bacillus cereus; endogenous in cells; host or cells: Bacillus cereus (enzyme purified from the bacterium)
- Sequence (P04190 31-257): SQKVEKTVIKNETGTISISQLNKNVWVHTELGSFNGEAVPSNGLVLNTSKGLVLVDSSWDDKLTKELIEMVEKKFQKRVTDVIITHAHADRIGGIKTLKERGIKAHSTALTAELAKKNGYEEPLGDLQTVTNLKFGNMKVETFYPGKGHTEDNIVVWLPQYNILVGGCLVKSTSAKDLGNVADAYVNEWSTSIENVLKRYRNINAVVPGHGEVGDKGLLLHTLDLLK
- ASSAY DETAILS: Ki determination, initial rate of hydrolysis of reporter substrate cephalosporin C
- Type: biochemical
ASSAY METRIC: Ki (µM)

| COMPOUND | SYSTEM NAME | TEST RESULT |
| --- | --- | --- |
| C[C@H](NC(=O)COc1ccccc1)C(=O)C(F)(F)F [Compound 6] | Class B β-lactamase (B. cereus enzyme) (Bacillus cereus) | 30 |
| O=C(COc1ccccc1)N[C@@H](Cc1ccccc1)C(=O)C(F)(F)F [Compound 3] | Class B β-lactamase (B. cereus enzyme) (Bacillus cereus) | 500 |
| C[C@@H](NC(=O)COc1ccccc1)C(=O)C(F)(F)F [Compound 7] | Class B β-lactamase (B. cereus enzyme) (Bacillus cereus) | 700 |
